- target: Adenosine receptor A2a (Homo sapiens); note: assay procedure not described here
- Sequence (P29274 whole entry): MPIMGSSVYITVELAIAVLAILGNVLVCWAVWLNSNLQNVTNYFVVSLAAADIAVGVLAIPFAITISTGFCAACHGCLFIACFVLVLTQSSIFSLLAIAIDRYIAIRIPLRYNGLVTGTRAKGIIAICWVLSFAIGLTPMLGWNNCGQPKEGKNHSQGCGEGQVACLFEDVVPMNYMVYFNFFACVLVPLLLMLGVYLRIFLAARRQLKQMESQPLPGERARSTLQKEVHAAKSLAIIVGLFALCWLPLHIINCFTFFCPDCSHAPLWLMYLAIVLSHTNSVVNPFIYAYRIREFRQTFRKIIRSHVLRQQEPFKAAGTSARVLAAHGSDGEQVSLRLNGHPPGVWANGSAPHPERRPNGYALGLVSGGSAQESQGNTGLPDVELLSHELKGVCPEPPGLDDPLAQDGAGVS
Here, each record is paired with measured AC50 data.

| molecule | AC50 |
| --- | --- |
| CC(NC(C)(C)C)C(=O)c1cccc(Cl)c1 (centres undefined) | > 30 µM |
| CCOC(=O)[C@H](CCc1ccccc1)N[C@@H](C)C(=O)N1Cc2ccccc2C[C@H]1C(=O)O | > 30 µM |
| Cc1cn(-c2cc(NC(=O)c3ccc(C)c(Nc4nccc(-c5cnccn5)n4)c3)cc(C(F)(F)F)c2)cn1 | > 30 µM |
| Nc1ccc(S(=O)(=O)Nc2ncccn2)cc1 | > 10 µM |

Answer with the recorded AC50 for the molecule listed here: CC1NCCOC1c1ccccc1 (centres undefined)
> 30 µM

Consider the molecule `CCCCOC(=O)c1ccc(N)cc1` . State its measured AC50.
> 30 µM

Item COC(=O)CCc1ccc(OCC(O)CNC(C)C)cc1 (centres undefined) : provide AC50
> 30 µM

Report AC50, nothing else, for this molecule: CC1Cc2ccccc2N1NC(=O)c1ccc(Cl)c(S(N)(=O)=O)c1 (centres undefined) [INDAPAMIDE]
> 30 µM

Please give measured AC50 of the following entry: CCC(=O)[C@@]1(C)[C@H](C)C[C@H]2[C@@H]3CCC4=CC(=O)C=C[C@]4(C)[C@H]3[C@@H](O)C[C@@]21C [RIMEXOLONE]
> 10 µM

----------
- target: Adenosine receptor A3 (Homo sapiens); note: assay procedure not described here
- Sequence (P0DMS8 whole entry): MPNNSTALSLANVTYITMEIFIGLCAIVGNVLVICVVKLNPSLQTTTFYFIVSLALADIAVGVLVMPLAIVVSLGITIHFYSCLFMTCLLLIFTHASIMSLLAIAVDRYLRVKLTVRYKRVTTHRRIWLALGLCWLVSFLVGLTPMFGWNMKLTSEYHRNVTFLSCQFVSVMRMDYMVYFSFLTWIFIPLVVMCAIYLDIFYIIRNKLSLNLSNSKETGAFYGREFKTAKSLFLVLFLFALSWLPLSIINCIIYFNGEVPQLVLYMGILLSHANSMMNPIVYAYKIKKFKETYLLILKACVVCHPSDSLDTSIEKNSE
This section presents molecules with their documented AC50 values.

| molecule | meas-value |
| --- | --- |
| Oc1cc(Cl)ccc1Oc1ccc(Cl)cc1Cl [TRICLOSAN] | 8.9 µM |
| c1cnc2cc3c(cc2n1)[C@@H]1CNC[C@H]3C1 [VARENICLINE] | > 30 µM |
| CC(=O)N1CCN(c2ccc(OCC3COC(Cn4ccnc4)(c4ccc(Cl)cc4Cl)O3)cc2)CC1 (stereo not drawn) [KETOCONAZOLE] | 17.7 µM |
| CNC1(C)C2CCC(C2)C1(C)C (stereo not drawn) [MECAMYLAMINE] | > 10 µM |
| COc1ccc(-n2nc(C(N)=O)c3c2C(=O)N(c2ccc(N4CCCCC4=O)cc2)CC3)cc1 [APIXABAN] | > 30 µM |
| O=C(O)[C@H]1/C(=C/CO)O[C@@H]2CC(=O)N21 [CLAVULANIC ACID] | > 30 µM |
| C[C@@H](Cc1ccccc1)N(C)Cc1ccccc1 [BENZPHETAMINE] | > 10 µM |
| CCOc1cc2ncc(C#N)c(Nc3ccc(OCc4ccccn4)c(Cl)c3)c2cc1NC(=O)/C=C/CN(C)C [NERATINIB] | > 30 µM |
| CC1=C(C(=O)O)N2C(=O)[C@@H](NC(=O)[C@H](N)C3=CCC=CC3)[C@H]2SC1 [CEPHRADINE] | 27 µM |
| CCCCOC(=O)C(=O)Nc1cccc(-c2nnn[nH]2)c1 [TAZANOLAST] | > 30 µM |

Next item in the queue.
Consider the molecule CCN(CC)C(C)C(=O)c1ccccc1 (stereo not drawn) [DIETHYLPROPION] . State its measured AC50.
> 30 µM

src = ChEMBL document CHEMBL5291721
